Measured Target: α-enolase (ENO1) (Homo sapiens, UniProt P06733, K330E)
Sequence (P06733 whole entry K330E): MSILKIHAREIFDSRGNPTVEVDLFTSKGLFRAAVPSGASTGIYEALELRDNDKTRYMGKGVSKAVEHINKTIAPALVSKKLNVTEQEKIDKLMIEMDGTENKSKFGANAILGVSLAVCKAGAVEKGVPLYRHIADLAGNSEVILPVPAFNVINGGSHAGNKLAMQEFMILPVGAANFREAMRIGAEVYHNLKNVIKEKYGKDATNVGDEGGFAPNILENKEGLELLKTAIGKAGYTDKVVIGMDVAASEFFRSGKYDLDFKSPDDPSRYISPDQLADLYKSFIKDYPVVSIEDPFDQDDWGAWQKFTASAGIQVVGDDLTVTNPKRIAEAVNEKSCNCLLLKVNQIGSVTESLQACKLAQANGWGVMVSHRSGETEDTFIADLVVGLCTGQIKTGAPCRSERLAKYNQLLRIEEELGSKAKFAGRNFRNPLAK
Experiment Description: SPR
pKd: −log10 of the molar value.
Measured Parameter: pKd

[
  {
    "Compound": "O=CC(O)COP(=O)(O)O (racemic)",
    "Measured Target": "α-enolase (ENO1) (Homo sapiens, UniProt P06733, K330E)",
    "Number": 4.99
  }
]

Cited source for all entries: paper doi:10.1101/2020.11.18.387670v2
